measurement-target: GMP-140 receptors on the surface of leukocytes (human)
assay-details: neutrophil adhesion to GMP-140 coated wells, peptide preincubated with neutrophils, myeloperoxidase read-out
Non-standard residues stand in square brackets, D forms with d. No end group written: not given here.
readout: percent inhibition of neutrophil binding to GMP-140 at 0.1 mM peptide (%)
Output spec: scalar in %, unitless text.

Known results for binders:
[dR]KIGGIWTWV-NH2 (N-terminus assumed; SMILES CC[C@H](C)[C@H](NC(=O)CNC(=O)CNC(=O)[C@@H](NC(=O)[C@H](CCCCN)NC(=O)[C@H](N)CCCNC(=N)N)[C@@H](C)CC)C(=O)N[C@@H](Cc1c[nH]c2ccccc12)C(=O)N[C@H](C(=O)N[C@@H](Cc1c[nH]c2ccccc12)C(=O)N[C@H](C(N)=O)C(C)C)[C@@H](C)O) [r…-NH2]: 95
RKVNNVWVWV […]: 82
RKNNGTWTWV-NH2: 46
Ac-RKNNKTWTWV-NH2 [Ac-…-NH2]: 35
RKNNKTW-NH2 [RKNNKTW-NH2]: 31
RKVNNVWVWV-NH2: 94

We now examine a further binder.
For the binder shown here, KWKWNRTNVT-NH2 […-NH2 (control peptide)] , give the reported percent inhibition of neutrophil binding to GMP-140 at 0.1 mM peptide.
0
